target_entity: T1, human GPC3 on CHO-K1-human GPC3 cells (CHOK1-hGPC3.2B5) (human, UniProt P51654 25-554)
T1 construct: whole, on cells
measurement_notes: FACS, CHOK1-hGPC3.2B5 cells;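 note: flow cytometry of humanized antibodies binding to the cells over one hour in the cold, read as cell mean fluorescence intensity, with EC50 obtained by curve fitting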
measured_parameter: pEC50
# pEC50 is unitless: minus log10 of the molar concentration; print number only

Known results for binders:
{"binder": "hAb007LH3L1 (antibody, human IgG1, V domains shown, Humanized F3.81.19; VH H3 + VL L1; expressed as human IgG1) VH: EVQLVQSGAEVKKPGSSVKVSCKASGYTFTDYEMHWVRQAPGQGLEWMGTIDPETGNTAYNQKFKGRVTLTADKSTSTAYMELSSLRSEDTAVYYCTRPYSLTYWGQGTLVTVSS VL: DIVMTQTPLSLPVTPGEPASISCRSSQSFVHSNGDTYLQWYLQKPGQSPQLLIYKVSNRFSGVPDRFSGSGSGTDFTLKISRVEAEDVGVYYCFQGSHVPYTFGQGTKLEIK", "numeric_readout": 8.16}
{"binder": "hAb001H2L1 (antibody, human IgG1, V domains shown, Humanized F2.169.2; VH H2 + VL L1; expressed as human IgG1) VH: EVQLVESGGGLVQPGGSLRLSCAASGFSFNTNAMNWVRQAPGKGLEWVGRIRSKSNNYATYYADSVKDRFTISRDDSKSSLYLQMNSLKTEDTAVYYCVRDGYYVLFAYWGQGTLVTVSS VL: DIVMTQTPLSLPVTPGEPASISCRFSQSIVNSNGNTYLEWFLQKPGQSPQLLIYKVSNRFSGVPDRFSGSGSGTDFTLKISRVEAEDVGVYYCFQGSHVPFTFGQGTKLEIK", "numeric_readout": 9.44}

Consider the additional binder presented here.
-- ask Can you share its pEC50? I mean this binder: GC33 IgG (antibody, V domains shown, Control antibody expressed as complete IgG; also called codrituzumab) VH: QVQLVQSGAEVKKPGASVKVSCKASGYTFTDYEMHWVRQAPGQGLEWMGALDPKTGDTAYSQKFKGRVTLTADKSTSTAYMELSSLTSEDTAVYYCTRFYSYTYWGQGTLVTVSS VL: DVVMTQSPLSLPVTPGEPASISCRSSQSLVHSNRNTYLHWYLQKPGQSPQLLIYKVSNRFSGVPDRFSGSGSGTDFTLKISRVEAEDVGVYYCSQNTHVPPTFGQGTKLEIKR
-- reply 8.66

Each recorded value in this set is attributed to patent US20260116991A1.
